Target: Recombinant human FAP (R&D systems, #3715-SE) (human, UniProt Q12884 26-760)
Sequence (Q12884 26-760 limits assumed): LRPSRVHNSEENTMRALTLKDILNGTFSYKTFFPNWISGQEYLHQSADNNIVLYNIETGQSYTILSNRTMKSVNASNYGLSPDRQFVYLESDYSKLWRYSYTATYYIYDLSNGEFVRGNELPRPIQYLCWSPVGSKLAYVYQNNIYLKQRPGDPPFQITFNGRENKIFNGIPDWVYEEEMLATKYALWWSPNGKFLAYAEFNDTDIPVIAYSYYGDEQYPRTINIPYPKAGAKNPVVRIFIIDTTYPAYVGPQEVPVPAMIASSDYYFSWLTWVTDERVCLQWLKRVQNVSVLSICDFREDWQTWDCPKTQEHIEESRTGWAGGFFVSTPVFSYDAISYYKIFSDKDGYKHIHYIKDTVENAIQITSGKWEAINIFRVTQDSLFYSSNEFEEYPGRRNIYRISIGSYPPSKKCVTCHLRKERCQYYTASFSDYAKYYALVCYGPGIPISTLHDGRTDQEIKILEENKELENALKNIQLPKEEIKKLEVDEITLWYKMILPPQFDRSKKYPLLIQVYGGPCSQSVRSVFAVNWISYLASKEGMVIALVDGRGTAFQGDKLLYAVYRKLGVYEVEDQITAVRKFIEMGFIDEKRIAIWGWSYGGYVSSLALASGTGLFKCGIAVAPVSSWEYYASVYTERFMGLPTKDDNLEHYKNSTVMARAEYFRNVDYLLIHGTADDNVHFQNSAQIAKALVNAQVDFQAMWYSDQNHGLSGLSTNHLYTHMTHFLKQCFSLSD
Assay: cell-based or functional assay
*1 amine or outer side, *2 acyl side, *3 side chain or, on linkers, in order; H or OH if unused. Bridges are numbered along the chain shown (N, C = ends). [ ]: non-standard residue; d: D form. The star is where a group is joined. mli(DOTA-Eda) = 3,4-N-(DOTA-aminoethyl)-maleimide bridging two Cys S atoms as vinyl thioethers; Ttds = 1,13-diamino-4,7,10-trioxatridecan-succinamic acid, NCCCOCCOCCOCCCNC(=O)CCC(=O)*; DOTA = O=C(O)CN1CCN(CC(=O)O)CCN(CC(=O)*)CCN(CC(=O)O)CC1; Maleimide(3,4-diyl) = O=C1NC(=O)C([*:2])=C1[*:1]; 4Amb = NCc1ccc(C(=O)O)cc1; Nle = CCCC[C@H](N)C(=O)O; Hexanoyl = CCCCCC(=O)*
measurementKind: pIC50 Category (Activity), FRET-based FAP protease activity assay

For Hexanoyl-CPPTQFCD-NH2 (linker 1-7 via mli(DOTA-Eda)) [compound Hex-[Cys(mli(DOTA-Eda))-Pro-Pro-Thr-Gln-Phe-Cys]-Asp-NH2 (2018)] , what is its reported pIC50 Category (Activity), FRET-based FAP protease activity assay?
> 7 pIC50

What about this binder? {DOTA-Ttds}-[Nle]CPPTQFCD[4Amb]R-NH2 (linker 2-8 via Maleimide(3,4-diyl)) [compound DOTA-Ttds-Nle-[Cys(mli)-Pro-Pro-Thr-Gln-Phe-Cys]-Asp-Pamb-Arg-NH2 (2006)]
> 7 pIC50

What about this binder? CPPTEFCD (HELM PEPTIDE1{[O=C(O)CN1CCN(CC(=O)O)CCN(CC(=O)[*:2])CCN(CC(=O)O)CC1].[Nle].C.P.P.T.E.F.C.D.[am]}$PEPTIDE1,PEPTIDE1,3:R3-9:R3$$$V2.0; SMILES CCCC[C@H](NC(=O)CN1CCN(CC(=O)O)CCN(CC(=O)O)CCN(CC(=O)O)CC1)C(=O)N[C@H]1CSSC[C@@H](C(=O)N[C@@H](CC(=O)O)C(N)=O)NC(=O)[C@H](Cc2ccccc2)NC(=O)[C@H](CCC(=O)O)NC(=O)[C@H]([C@@H](C)O)NC(=O)[C@@H]2CCCN2C(=O)[C@@H]2CCCN2C1=O) [compound DOTA-Nle-[Cys-Pro-Pro-Thr-Glu-Phe-Cys]-Asp-NH2 (1004)]
> 7 pIC50
